// reported TGI per item
# System: SF-268
# assay_summary: Cytotoxicity against human SF268 cells assessed as growth inhibition after 48 hrs by sulforhodamine B assay
# Format: functional
# measurement_conditions: SF-268, 48 h
test_readout: TGI

compound | result
COc1ccc(-c2cc(/C=C/C(=O)c3cc(OC)c(OC)c(OC)c3)[nH]n2)cc1OC | 3.9 µM
COc1cc(C(=O)/C=C/c2cc(-c3cc(OC)c(OC)c(OC)c3)n[nH]2)cc(OC)c1OC | 4.58 µM
COc1cc2c(cc1OC)C(=O)/C(=C/c1cc(-c3ccc4c(c3)OCO4)n[nH]1)C2 | 3.37 µM
COc1cc(-c2cc(/C=C/C(=O)c3ccc(Cl)c(Cl)c3)[nH]n2)cc(OC)c1OC | 63.3 µM
COc1ccc(-c2cc(/C=C/C(=O)c3ccc(N)cc3)[nH]n2)cc1OC | 4.4 µM
COc1ccc(-c2cc(/C=C/C(=O)c3ccc(N)cc3)[nH]n2)cc1 | 5.31 µM
COc1ccc(C(=O)/C=C/c2cc(-c3cc(OC)c(OC)c(OC)c3)n[nH]2)cc1OC | 3.96 µM

====

// reported TGI per item
# Tested on: A498
# assay_summary: Cytotoxicity against human A498 cells assessed as growth inhibition after 48 hrs by sulforhodamine B assay
# Format: functional
# measurement_conditions: A498, 48 h
test_readout: TGI (µM)

compound | quantitative_readout
COc1ccc(-c2cc(/C=C/C(=O)c3cc(OC)c(OC)c(OC)c3)[nH]n2)cc1OC | 4.99
COc1ccc(C(=O)/C=C/c2cc(-c3ccc4c(c3)OCO4)n[nH]2)cc1OC | 4.23
COc1ccc(-c2cc(/C=C/C(=O)c3ccc(N)cc3)[nH]n2)cc1OC | 7.09
COc1cc(C(=O)/C=C/c2cc(-c3cc(OC)c(OC)c(OC)c3)n[nH]2)cc(OC)c1OC | 3.59

====

// reported TGI per item
# Tested on: SR
# assay_summary: Cytotoxicity against human SR cells assessed as growth inhibition after 48 hrs by sulforhodamine B assay
# Assay type: functional
test_readout: TGI

compound | result
COc1ccc(-c2cc(/C=C/C(=O)c3ccc(N)cc3)[nH]n2)cc1 | 6.09 µM
COc1ccc(-c2cc(/C=C/C(=O)c3ccc(OC)c(OC)c3)[nH]n2)cc1 | 3.74 µM
COc1ccc(C(=O)/C=C/c2cc(-c3cc(OC)c(OC)c(OC)c3)n[nH]2)cc1 | 23.9 µM
COc1cc(-c2cc(/C=C/C(=O)c3ccc4c(c3)OCO4)[nH]n2)cc(OC)c1OC | > 100 µM

====

# System: CCRF-CEM
# assay_summary: Cytotoxicity against human CCRF-CEM cells assessed as growth inhibition after 48 hrs by sulforhodamine B assay
# Assay type: functional
// reported LC50 (concentration killing 50% of cells) per item
test_readout: LC50 (concentration killing 50% of cells)

compound | tested_target | result
COc1ccc(-c2cc(/C=C/C(=O)c3cc(OC)c(OC)c(OC)c3)[nH]n2)cc1OC | CCRF-CEM | > 100 µM
COc1cc(-c2cc(/C=C/C(=O)c3ccc(N)cc3)[nH]n2)cc(OC)c1OC | CCRF-CEM | > 100 µM
COc1ccc(C(=O)/C=C/c2cc(-c3cc(OC)c(OC)c(OC)c3)n[nH]2)cc1OC | CCRF-CEM | > 100 µM
COc1cc(-c2cc(/C=C/C(=O)c3ccc(Cl)c(Cl)c3)[nH]n2)cc(OC)c1OC | CCRF-CEM | > 100 µM
COc1cc(C(=O)/C=C/c2cc(-c3cc(OC)c(OC)c(OC)c3)n[nH]2)cc(OC)c1OC | CCRF-CEM | > 100 µM

====

# Tested on: MDA-MB-231
# assay_summary: Cytotoxicity against human MDA-MB-231 cells assessed as cell growth at 100 uM after 48 hrs by sulforhodamine B assay relative to control
# Format: functional
# measurement_conditions: MDA-MB-231, 48 h, read-out: Activity

compound | growth at 100 µM / %
COc1cc(-c2cc(/C=C/C(=O)c3ccc(N)cc3)[nH]n2)cc(OC)c1OC | -77
COc1cc(C(=O)/C=C/c2cc(-c3cc(OC)c(OC)c(OC)c3)n[nH]2)cc(OC)c1OC | -96
COc1ccc(C(=O)/C=C/c2cc(-c3ccc4c(c3)OCO4)n[nH]2)cc1OC | -86
COc1cc2c(cc1OC)C(=O)/C(=C/c1cc(-c3ccc4c(c3)OCO4)n[nH]1)C2 | -96

====

# System: HOP-62
# assay_summary: Cytotoxicity against human HOP62 cells assessed as cell growth at 0.1 uM after 48 hrs by sulforhodamine B assay relative to control
# Format: functional
# measurement_conditions: HOP-62, 48 h, read-out: Activity
// reported growth at 0.1 µM per item

compound | growth at 0.1 µM [%]
COc1cc(-c2cc(/C=C/C(=O)c3ccc(Cl)c(Cl)c3)[nH]n2)cc(OC)c1OC | 101
COc1ccc(-c2cc(/C=C/C(=O)c3ccc(N)cc3)[nH]n2)cc1 | 100
COc1ccc(-c2cc(/C=C/C(=O)c3cc(OC)c(OC)c(OC)c3)[nH]n2)cc1OC | 80
COc1cc(-c2cc(/C=C/C(=O)c3ccc4c(c3)OCO4)[nH]n2)cc(OC)c1OC | 100
COc1cc(-c2cc(/C=C/C(=O)c3ccc(F)c(F)c3)[nH]n2)cc(OC)c1OC | 101
COc1ccc(-c2cc(/C=C/C(=O)c3ccc(N)cc3)[nH]n2)cc1OC | 91

====

// reported growth at 0.1 µM per item
# Test system: HCT-116
# assay_summary: Cytotoxicity against human HCT116 cells assessed as cell growth at 0.1 uM after 48 hrs by sulforhodamine B assay relative to control
# Format: functional
# measurement_conditions: HCT-116, 48 h, read-out: Activity

compound | growth at 0.1 µM (%)
COc1cc(-c2cc(/C=C/C(=O)c3ccc(F)c(F)c3)[nH]n2)cc(OC)c1OC | 102
COc1ccc(-c2cc(/C=C/C(=O)c3ccc(N)cc3)[nH]n2)cc1 | 105
COc1cc(-c2cc(/C=C/C(=O)c3ccc(N)cc3)[nH]n2)cc(OC)c1OC | 97
COc1cc(C(=O)/C=C/c2cc(-c3cc(OC)c(OC)c(OC)c3)n[nH]2)cc(OC)c1OC | 104

====

# System: HCC 2998
# assay_summary: Cytotoxicity against human HCC2998 cells assessed as cell growth at 10 uM after 48 hrs by sulforhodamine B assay relative to control
# Assay type: functional
# measurement_conditions: HCC 2998, 48 h, read-out: Activity

compound | tested_target | growth at 10 µM [%]
COc1ccc(C(=O)/C=C/c2cc(-c3cc(OC)c(OC)c(OC)c3)n[nH]2)cc1OC | HCC 2998 | -85
COc1ccc(C(=O)/C=C/c2cc(-c3ccc4c(c3)OCO4)n[nH]2)cc1OC | HCC 2998 | 27
COc1cc(-c2cc(/C=C/C(=O)c3ccc4c(c3)OCO4)[nH]n2)cc(OC)c1OC | HCC 2998 | -87
COc1cc2c(cc1OC)C(=O)/C(=C/c1cc(-c3ccc4c(c3)OCO4)n[nH]1)C2 | HCC 2998 | -88

====

# System: PC-3
# assay_summary: Cytotoxicity against human PC3 cells assessed as growth inhibition after 48 hrs by sulforhodamine B assay
# Assay type: functional
# measurement_conditions: PC-3, 48 h
// reported LC50 per item
test_readout: LC50 (µM)

compound | display_unit | comparison_symbol | quantitative_readout
COc1cc2c(cc1OC)C(=O)/C(=C/c1cc(-c3ccc4c(c3)OCO4)n[nH]1)C2 | µM | = | 6.6
COc1ccc(-c2cc(/C=C/C(=O)c3ccc(N)cc3)[nH]n2)cc1OC | µM | > | 100
COc1cc(-c2cc(/C=C/C(=O)c3ccc(F)c(F)c3)[nH]n2)cc(OC)c1OC | µM | > | 100
COc1cc(-c2cc(/C=C/C(=O)c3ccc4c(c3)OCO4)[nH]n2)cc(OC)c1OC | µM | > | 100
COc1cc(C(=O)/C=C/c2cc(-c3ccc4c(c3)OCO4)n[nH]2)cc(OC)c1OC | µM | = | 12.4
COc1cc(-c2cc(/C=C/C(=O)c3ccc(N)cc3)[nH]n2)cc(OC)c1OC | µM | > | 100
COc1ccc(C(=O)/C=C/c2cc(-c3cc(OC)c(OC)c(OC)c3)n[nH]2)cc1OC | µM | = | 5.76

====

// reported TGI per item
# Test system: SK-MEL-5
# assay_summary: Cytotoxicity against human SK-MEL-5 cells assessed as growth inhibition after 48 hrs by sulforhodamine B assay
# Assay type: functional
# measurement_conditions: SK-MEL-5, 48 h
test_readout: TGI (µM)

compound | quantitative_readout
COc1cc2c(cc1OC)C(=O)/C(=C/c1cc(-c3ccc4c(c3)OCO4)n[nH]1)C2 | 3.06
COc1ccc(C(=O)/C=C/c2cc(-c3ccc4c(c3)OCO4)n[nH]2)cc1OC | 19.9
COc1ccc(C(=O)/C=C/c2cc(-c3ccc(OC)c(OC)c3)n[nH]2)cc1OC | 2.96
COc1cc(-c2cc(/C=C/C(=O)c3ccc(N)cc3)[nH]n2)cc(OC)c1OC | 3.06
